B1: LINE1-mini (parent)
chain: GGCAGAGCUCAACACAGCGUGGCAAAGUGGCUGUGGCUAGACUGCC

- Variants of: B1
- test description: self-cleavage, relative activity (ratio to wild type); higher = more cleavage; in vitro, sequencing; the parent is a self-cleaving ribozyme
property: self-cleavage
Give the value as a plain number.

# return recorded self-cleavage for entry GGCAGCGCUCAACACAGCGUGGCAAAGUGGCUAUGGCUAGACUGCC [A6C G33A]
0.06

# return recorded self-cleavage for entry GGCAGAGCUCAACACAGCGUGGCAGAGUGGCUGUGGCUAGAGUGCC [A25G C42G]
0.05

# return recorded self-cleavage for entry GGCAGAGCUCAACACAGGGUGGCAAAGUGGCUGUGGCUAGAGUGCC [C18G C42G]
0.04

# return recorded self-cleavage for entry UGCAGAGCUCAACACAGCGUGGCAAAGUGGCUGUGGCUGGACUGCC [G1U A39G]
0.05

# return recorded self-cleavage for entry GGCAGAGCUUAACACAGCGUGGCAAAGUGGCUUUGGCUAGACUGCC [C10U G33U]
0.04

# return recorded self-cleavage for entry GGCAGUGCUCCACACAGCGUGGCAAAGUGGCUGUGGCUAGACUGCC [A6U A11C]
0.06

# return recorded self-cleavage for entry GGCAGAGCUCAACACAGCGUGGCUAAGUGGCUCUGGCUAGACUGCC [A24U G33C]
0.06

# return recorded self-cleavage for entry GGCUGAGCUCAACACAGCGUAGCAAAGUGGCUGUGGCUAGACUGCC [A4U G21A]
0.48

# return recorded self-cleavage for entry GCCAGAGCUCAACACAGCGUGGCAAAGUGGCUGUGGCUAGACUACC [G2C G44A]
0.17

# return recorded self-cleavage for entry GGCAGAGCUCAACACAGGGUGGCAAAGUCGCUGUGGCUAGACUGCC [C18G G29C]
0.49

# return recorded self-cleavage for entry GGCAGAGCUCAACACAGAGUGGCAUAGUGGCUGUGGCUAGACUGCC [C18A A25U]
1.21

# return recorded self-cleavage for entry GGCAGAGCUCAAGACAGCGUGGCACAGUGGCUGUGGCUAGACUGCC [C13G A25C]
0.18

# return recorded self-cleavage for entry GGCAGAGCUCAAAUCAGCGUGGCAAAGUGGCUGUGGCUAGACUGCC [C13A A14U]
0.12

# return recorded self-cleavage for entry GGCAGAGCUCAACACAGAGUGGCAAAGUGGCUGUGGCUAGACAGCC [C18A U43A]
0.08

# return recorded self-cleavage for entry GCGAGAGCUCAACACAGCGUGGCAAAGUGGCUGUGGCUAGACUGCC [G2C C3G]
0.07

# return recorded self-cleavage for entry GGCAGUGCUCAACACAGCGUGGCAAACUGGCUGUGGCUAGACUGCC [A6U G27C]
0.38

# return recorded self-cleavage for entry GGCAGAGCUCAACGCAGCGUGGCAAAGUGGCUGUGGCCAGACUGCC [A14G U38C]
0.15

# return recorded self-cleavage for entry GGCAGAGCUCAACACGGCGUGGCAAAGUGCCUGUGGCUAGACUGCC [A16G G30C]
1.19

# return recorded self-cleavage for entry GGCAGAGCUCAACACAGCGUGGCAAAAUGGCUGUGGCUCGACUGCC [G27A A39C]
0.11

# return recorded self-cleavage for entry GGCAGAGCUCAACACAGCGUGGCAAAGUGGCUGUGGCUAGUAUGCC [A41U C42A]
0.09

# return recorded self-cleavage for entry GGCACAGCUCAACACAGCGUGGCAAACUGGCUGUGGCUAGACUGCC [G5C G27C]
0.06

# return recorded self-cleavage for entry GGUAGCGCUCAACACAGCGUGGCAAAGUGGCUGUGGCUAGACUGCC [C3U A6C]
0.5

# return recorded self-cleavage for entry GGCAGAGCUAAACACAGCGUGGCAAAGUGGCUGUGGCUAGACGGCC [C10A U43G]
0

# return recorded self-cleavage for entry GGCAGAGCUCAACACAGCGUGGCAAAGCGGCUGUGGCUAGACUGCA [U28C C46A]
0.66

# return recorded self-cleavage for entry GGCAGAGCUCAACACAGCGUGGCAAAGUGGCUGUGGCUAGACUACA [G44A C46A]
0.08

# return recorded self-cleavage for entry UGCAGAGCUCAACACAGCGUGGCAAAGUGGCUGGGGCUAGACUGCC [G1U U34G]
0.06

# return recorded self-cleavage for entry GGCAGAGCUCAACACAGCGUGGGAAAGUGGCUGUGGCUCGACUGCC [C23G A39C]
0.07

# return recorded self-cleavage for entry GGCAGAGCUCAACACAGCGCGGCAAAGUGGCUGUGGUUAGACUGCC [U20C C37U]
0.06

# return recorded self-cleavage for entry GGCAGAGCUCAACACAGCGUGGCAAAGUGGCUGUGGCUAGACAGAC [U43A C45A]
0.08

# return recorded self-cleavage for entry GGCAGAGCUCAGCACAGCGUGGCAAAGUGGCUUUGGCUAGACUGCC [A12G G33U]
0.12
